# assay_system: ΔCTD_Reg1 (amino acids 1 to 546 of human Regnase-1) phosphorylation by TBK1 (Homo sapiens)
# Construct: made in house; host or cells: Expi293 cells
# Sequence (Q5D1E8 1-546, stated change not applied): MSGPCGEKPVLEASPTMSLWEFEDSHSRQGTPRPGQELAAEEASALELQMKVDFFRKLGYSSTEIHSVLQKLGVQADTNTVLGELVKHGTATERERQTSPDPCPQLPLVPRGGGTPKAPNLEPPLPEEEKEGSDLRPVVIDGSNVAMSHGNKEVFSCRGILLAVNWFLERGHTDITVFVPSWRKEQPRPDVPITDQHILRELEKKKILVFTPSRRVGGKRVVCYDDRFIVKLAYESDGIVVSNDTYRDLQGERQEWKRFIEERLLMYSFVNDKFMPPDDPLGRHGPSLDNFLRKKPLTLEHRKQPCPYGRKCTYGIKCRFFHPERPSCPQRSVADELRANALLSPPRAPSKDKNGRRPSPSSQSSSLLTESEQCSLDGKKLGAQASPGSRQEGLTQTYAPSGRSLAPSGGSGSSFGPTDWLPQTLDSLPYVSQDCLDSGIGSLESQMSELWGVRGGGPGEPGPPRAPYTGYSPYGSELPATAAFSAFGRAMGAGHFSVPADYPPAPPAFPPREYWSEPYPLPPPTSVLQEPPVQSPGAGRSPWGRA
# run_description: Regnase-1 phosphorylation inhibition by compounds (AlphaScreen), TBK1, CTD-deficient Regnase-1
# Format: biochemical
# condition_parameters: Table 11; 2 nM Regnase-1; AlphaScreen; read-out: 50% inhibition concentration, Regnase-1 phosphorylation, ΔCTD_Reg1, TBK1
pIC50: −log10 of the molar value. Residues, ends and D or L forms follow the SMILES beside them.

{"molecule": "CC[C@H](C)[C@@H]1NC(=O)[C@H](Cc2ccc(O)cc2)NC(=O)[C@H](C)N(C)C(=O)C[C@@H](C(=O)N2CCCC2)NC(=O)[C@H](CC(C)C)NC(=O)[C@H](CC(=O)O)NC(=O)CNC(=O)[C@H](Cc2ccccc2)NC(=O)[C@H](Cc2ccccc2)NC(=O)[C@H](CC(=O)O)NC(=O)[C@H](Cc2c[nH]c3ccccc23)NC1=O [PP4] (HELM PEPTIDE1{[meA].Y.I.W.D.F.F.G.D.L.D.[C1CCN([*:1])C1]}$PEPTIDE1,PEPTIDE1,1:R1-11:R3$$$V2.0)", "assay_system": "ΔCTD_Reg1 (amino acids 1 to 546 of human Regnase-1) phosphorylation by TBK1 (Homo sapiens)", "pIC50": 4.35}
{"molecule": "CC[C@H](C)[C@@H]1NC(=O)[C@H](CC(N)=O)NC(=O)[C@H](Cc2ccc(O)cc2)NC(=O)[C@H](Cc2c[nH]c3ccccc23)NC(=O)[C@H](CO)NC(=O)[C@H](CC(N)=O)NC(=O)[C@H](C)NC(=O)[C@H](Cc2ccc(O)cc2)NC(=O)CNC(=O)[C@H](C)N(C)C(=O)C[C@@H](C(=O)N2CCCC2)NC(=O)[C@H](Cc2c[nH]c3ccccc23)NC1=O [PP2] (HELM PEPTIDE1{[meA].G.Y.A.N.S.W.Y.N.I.W.D.[C1CCN([*:1])C1]}$PEPTIDE1,PEPTIDE1,1:R1-12:R3$$$V2.0)", "assay_system": "ΔCTD_Reg1 (amino acids 1 to 546 of human Regnase-1) phosphorylation by TBK1 (Homo sapiens)", "pIC50": 4.75}
